TEST_TARGET: S. pyogenes SKKanGAS, kanamycin survival, BacTiterGlo, 6 h
TEST_SUMMARY: S. pyogenes SKKanGAS kanamycin growth inhibitors – SKKanGAS strain, luminescence, dose confirmation, streptokinase promoter inhibitor project, dose response (AID 1902);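 also: lower survival reflects blocked streptokinase promoter driving kanamycin resistance gene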
The source made the active and inactive calls.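 The calls were made as follows: active = EC50 no more than a set limit of log units above the highest dose; inactive = the rest.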
Outcome codes: active, inactive

{"columns": ["COMPOUND", "CLASS_LABEL"],
 "data": [
  ["Cc1ccc(C(=O)NC2CCCC2)s1", "inactive"],
  ["N#Cc1nc(-c2ccc(OCc3ccccc3Cl)cc2)oc1NCCCn1ccnc1", "active"],
  ["Cc1[nH]n(-c2ccccc2)c(=O)c1/C=N\\NC(=O)C1COc2ccccc2O1 (stereo unspecified)", "active"],
  ["O=C(CSc1ccc2ccccc2n1)N/N=C/c1ccccc1O", "active"],
  ["O=C(NC(=S)NNC(=O)c1ccccc1O)c1ccc(F)cc1", "active"],
  ["CC(C)(C)c1ccc(CSc2cnn(C(C)(C)C)c(=O)c2Cl)cc1", "active"],
  ["CCc1ccc(NC2=NCC(c3ccccc3)S2)cc1 (stereo unspecified)", "active"],
  ["C=C1CCC2C(C)(C)[C@@H](O)CC[C@@]2(C)[C@@H]1COc1ccc2ccc(=O)oc2c1 (stereo partly specified)", "active"],
  ["CC(=O)N(C1=C(Cl)C(=O)c2ccccc2C1=O)C1CCCCC1", "active"],
  ["Cc1cc(C)c(NC(=O)c2oc3ccccc3c2COc2ccccc2)c(C)c1", "active"],
  ["CSc1ccc(/C=C2\\CCn3c2nc2cc(C(=O)O)ccc2c3=O)cc1", "active"]
]}

---

Listed below: pEC50 values for each entry.
TEST_TARGET: S. pyogenes SKKanGAS, kanamycin survival, BacTiterGlo, 6 h
TEST_SUMMARY: S. pyogenes SKKanGAS kanamycin growth inhibitors – SKKanGAS strain, luminescence, dose confirmation, streptokinase promoter inhibitor project, dose response (AID 1902);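 also: lower survival reflects blocked streptokinase promoter driving kanamycin resistance gene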
pEC50: −log10 of the molar value.
OBSERVATION_TYPE: pEC50

{"columns": ["MOLECULE", "OBSERVATION_TYPE", "OBSERVED_VALUE"],
 "data": [
  ["CCN1CCN(c2cc3c(cc2F)c(=O)c(C(=O)O)cn3C2CC2)CC1", "pEC50", 5.89],
  ["CCOc1cccc(/C=N/NC(=O)c2ccc3c(c2)OCCO3)c1O", "pEC50", 5.90],
  ["O=Nc1c(O)c2ccccc2c2ccccc12", "pEC50", 5.63],
  ["O=C(Nc1scc(-c2ccc(Br)cc2)c1C(=O)O)c1ccccc1F", "pEC50", 5.73],
  ["N=C1S/C(=C\\c2ccc(-c3cccc(Cl)c3)o2)C(=O)N1c1nccs1", "pEC50", "> 7.22"],
  ["Cc1cc(Cl)c2oc(C(=O)N3CCN(C(=O)c4ccco4)CC3)c(C)c2c1", "pEC50", 5.35],
  ["O=C(Nc1ccc(Cl)c(Cl)c1)C1CC(=O)N(c2ccc(Br)cc2)C1 (stereo unspecified)", "pEC50", 5.35],
  ["Cc1ccc(C(NC(=O)NC(C)c2ccccc2)C(Cl)(Cl)Cl)cc1F (stereo unspecified)", "pEC50", 5.19],
  ["CC1Cc2ccccc2N1C(=S)NC(=O)c1ccc(Cl)cc1Cl (stereo unspecified)", "pEC50", 5.37],
  ["CCCCCC(=O)NNC(=O)c1c(O)c2ccccc2n(CC)c1=O", "pEC50", 5.87],
  ["COc1ccccc1-c1cc(-c2ccccc2)nc(SCC(=O)O)c1C#N", "pEC50", 5.71]
]}

---

TEST_TARGET: S. pyogenes SKKanGAS, kanamycin survival, BacTiterGlo, 6 h
TEST_SUMMARY: S. pyogenes SKKanGAS kanamycin growth inhibitors – SKKanGAS strain, luminescence, dose confirmation, streptokinase promoter inhibitor project, dose response (AID 1902);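 also: lower survival reflects blocked streptokinase promoter driving kanamycin resistance gene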
Activity calls are given as the source filed them.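 Rule for the calls: active = EC50 no more than a set limit of log units above the highest dose; inactive = the rest.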
Labels: active, inactive

{"columns": ["MOLECULE", "CLASS_LABEL"],
 "data": [
  ["CCOC(=O)c1c(N)sc(C(O)(C(F)(F)F)C(F)(F)F)c1-c1ccc(Cl)cc1", "active"],
  ["COCCNC(=O)c1c(NC(=O)c2ccc(Br)o2)n(Cc2ccccc2)c2nc3ccccc3nc12", "active"],
  ["Cc1cc(C)nc(N/N=C/c2cc(Br)ccc2O)n1", "active"],
  ["N#CC(C#N)=NNc1ccc([N+](=O)[O-])cc1", "active"],
  ["COc1ccc(-c2cc(C3CCN(c4ccc(C(C)=O)cc4[N+](=O)[O-])CC3)[nH]n2)cc1", "active"],
  ["O=c1c2ccccc2[se]n1-c1ccccc1", "active"],
  ["O=C(NNc1ccccc1Cl)C(O)(c1cccc(C(F)(F)F)c1)c1cccc(C(F)(F)F)c1", "active"],
  ["CCc1nc(SCC(=O)Nc2ccccc2OC)c2c(C)c(C)sc2n1", "active"],
  ["COc1cccc(NC(=O)NCCCCc2ccccc2)c1", "inactive"],
  ["COc1ccccc1N1CCN(C(=O)/C=C/c2c(Cl)nc3ccccn23)CC1", "active"],
  ["O=C(NC(NC(=S)Nc1ccc(Cl)c(Cl)c1)C(Cl)(Cl)Cl)c1ccco1 (stereo not drawn)", "active"],
  ["O=C(Oc1cccc(/C=N/Nc2nc(Nc3ccccc3)nc(N3CCOCC3)n2)c1)c1ccco1", "active"],
  ["Cc1ccc(C(=O)N/N=C/c2cc(Br)ccc2O)cn1", "active"],
  ["COc1ccc(Cl)cc1C(=O)NNC(=S)NC(=O)c1cc(-c2ccc(Cl)cc2)nc2ccccc12", "active"],
  ["COc1ccc(-n2nc3cc(C)c(NC(=O)C(C)C)cc3n2)cc1", "inactive"],
  ["COc1cccc(/C=C/c2ccc3cccc(O)c3n2)c1OC", "active"],
  ["CCOc1ccc(/C=N/NC(=S)NC2CC3C=CC2C3)cc1 (stereo not drawn)", "inactive"],
  ["Oc1nc(Nc2ccccc2)sc1/C=C1\\C=Nc2ccccc21", "active"],
  ["Cc1onc(-c2ccccc2)c1C(=O)NC(=S)NNC(=O)c1ccc(O)cc1", "active"],
  ["CC(C)(C)N/N=C1\\CC(c2ccccc2)Oc2ccccc21 (stereo not drawn)", "active"],
  ["CCn1cc(C(=O)O)c(=O)c2cc(F)c(N3CCN(S(=O)(=O)c4ccc5c(c4)OCCO5)CC3)cc21", "active"],
  ["O=c1cc(-c2ccc([N+](=O)[O-])cc2)nc2cc(-c3ccc(F)cc3)[nH]n12", "active"],
  ["CC1CC(C)CN(Cc2nc(N)nc(Nc3ccc4ccccc4c3)n2)C1 (stereo not drawn)", "active"],
  ["N=c1c(-c2nc3ccccc3[nH]2)cc(C(=O)c2cccs2)nn1-c1ccccc1", "active"],
  ["Cc1ccsc1C1C=C(c2cccc(Br)c2)Nc2ncnn21 (stereo not drawn)", "active"],
  ["O=C(CSc1nnc(-c2ccc3c(c2)OCO3)o1)Nc1ncc(C(F)(F)F)cc1Cl", "active"],
  ["O=C(N/N=C/c1cc([N+](=O)[O-])ccc1O)c1cc(-c2ccccc2)nc2ccccc12", "active"],
  ["COc1ccc2[nH]c3c(C)c4ccncc4c(C)c3c2c1", "active"],
  ["COc1ccc(N(CC(=O)NCCSCc2cccc(Cl)c2)S(C)(=O)=O)cc1Cl", "active"],
  ["O=C(NC(=S)NNC(=O)c1ccccc1O)c1ccccc1", "active"],
  ["Nc1nc2ccccc2n1/N=C/c1ccc(-c2ccccc2)o1", "active"],
  ["C=CCn1c(N2C(=O)CC(Cc3ccccc3)C2=O)nc2ccccc21 (stereo not drawn)", "active"],
  ["Cc1cccc(OC(=O)c2sc3ncn(C)c(=O)c3c2C)c1", "active"],
  ["Cc1nn2c(NCc3ccccn3)cc(C(C)(C)C)nc2c1-c1ccccc1", "active"],
  ["CCCCNc1c(-c2ccc(SC3CCCCC3)cc2)nc2ccccn12", "active"],
  ["Cc1cc(/C=C2\\SC(=S)N(C)C2=O)c(C)n1-c1ccccc1O", "active"],
  ["O=C(NCc1ccc2c(c1)OCO2)Nc1ccc(F)cc1", "inactive"],
  ["COc1ccc(C2/C=C\\CN(C(=O)c3ccccc3)CC(=O)N2Cc2ccc(F)cc2)cc1 (stereo not drawn)", "inactive"],
  ["Cc1cc(C)c2[nH]c(O)c(N=Nc3ccc(C(=O)O)cc3)c2c1", "active"],
  ["COC(=O)[C@H]1[C@H](CCc2ccccc2)NC(=O)N(Cc2ccccc2)[C@@H]1C", "inactive"],
  ["Oc1[nH]c2ccc(Br)cc2c1N=NC(=S)N1CCOCC1", "active"],
  ["Clc1ccccc1Sc1ccc(-c2ccccn2)s1", "active"],
  ["S=c1[nH]nc(-c2cc(-c3ccccc3)n[nH]2)n1/N=C/c1ccc(Cl)cc1", "active"]
]}

---

TEST_TARGET: S. pyogenes SKKanGAS, kanamycin survival, BacTiterGlo, 6 h
TEST_SUMMARY: S. pyogenes SKKanGAS kanamycin growth inhibitors – SKKanGAS strain, luminescence, dose confirmation, streptokinase promoter inhibitor project, dose response (AID 1902);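 also: lower survival reflects blocked streptokinase promoter driving kanamycin resistance gene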
pEC50: −log10 of the molar value.

{"columns": ["COMPOUND", "pEC50"],
 "data": [
  ["CNC[C@@H](CC1CCCCC1)NC[C@H](CC(C)C)NCCc1cccc(C(F)(F)F)c1", 5.27],
  ["Cc1ccc(C2(c3ccc(C)cc3)CC2C(=O)Nc2ccc([N+](=O)[O-])cc2O)cc1 (stereo not given)", 5.67],
  ["COc1cccc(C2CC(c3cccs3)=NN2C(=O)CSc2nc3c(cnn3-c3ccc(F)cc3)c(=O)[nH]2)c1OC (stereo not given)", 5.69],
  ["CCOc1ccc(-n2cc(-c3ccccc3)c3c(=S)nc[nH]c32)cc1", 5.24],
  ["COc1ccc(-c2cn[nH]c2-c2ccc(OCc3ccccc3)cc2O)cc1", 5.62]
]}
